System: Hepatotoxicity
Assay: FDA HLAED, serum glutamic oxaloacetic transaminase (SGOT) increase
Conditions: human
What SGOT Increase - Index Value was measured for each of the following?
// no unit, no text: just the number

In: Lab note: need SGOT Increase - Index Value for Cc1c(OCC(F)(F)F)ccnc1C[S+]([O-])c1nc2ccccc2[nH]1 (stereo not drawn) on Hepatotoxicity, anyone have it?
Out: 0.9

In: Entry CN1CC[C@]23c4c5ccc(O)c4O[C@H]2C(=O)CC[C@H]3[C@H]1C5 [HYDROMORPHONE] , system Hepatotoxicity: what SGOT Increase - Index Value was measured?
Out: 0

In: # returns recorded SGOT Increase - Index Value (system: Hepatotoxicity) for CC1(C)O[C@@H]2[C@@H](CO[C@@]3(COS(N)(=O)=O)OC(C)(C)O[C@@H]23)O1 [TOPIRAMATE]
Out: 0

In: Look up SGOT Increase - Index Value with Hepatotoxicity for this molecule: CCn1nc(C(=O)O)c(=O)c2cc3c(cc21)OCO3
Out: 16.9

In: Observed SGOT Increase - Index Value on Hepatotoxicity for CC(CCc1ccccc1)NCC(O)c1ccc(O)c(C(N)=O)c1 (stereo not drawn) , please.
Out: 3

In: For Hepatotoxicity, provide SGOT Increase - Index Value of C[C@]12CC[C@@H]3c4ccc(OC(=O)Cc5ccc(N(CCCl)CCCl)cc5)cc4CC[C@H]3[C@@H]1CC[C@@H]2OC(=O)Cc1ccc(N(CCCl)CCCl)cc1 please.
Out: 0

In: Find the measured SGOT Increase - Index Value: item CC(C)c1cccc(C(C)C)c1O , target or system Hepatotoxicity.
Out: 0.7

In: Requested read-out SGOT Increase - Index Value, target or system Hepatotoxicity, entry Nc1ccc(O)c(C(=O)O)c1
Out: 2.2

====

Tested on: Hepatotoxicity
Assay: FDA HLAED, serum glutamic oxaloacetic transaminase (SGOT) increase
Details: human
ATTRIBUTE_MEASURED: SGOT Increase - Activity Score

Some molecules with recorded SGOT Increase - Activity Score:
| MOLECULE | ATTRIBUTE_MEASURED | OBSERVED_RESULT |
| --- | --- | --- |
| Cc1ccnc2c1NC(=O)c1cccnc1N2C1CC1 [NEVIRAPINE] | SGOT Increase - Activity Score | Active |
| Nc1ccc(O)c(C(=O)O)c1 [MESALAMINE] | SGOT Increase - Activity Score | Inactive |
| COc1ccc2c(c1)c(CC(=O)O)c(C)n2C(=O)c1ccc(Cl)cc1 [INDOMETHACIN] | SGOT Increase - Activity Score | Marginally Active |
| CO/N=C(\C(=O)N[C@@H]1C(=O)N2C(C(=O)O)=C(COC(C)=O)CS[C@H]12)c1csc(N)n1 [CEFOTAXIME] | SGOT Increase - Activity Score | Active |
| CCCC1O[C@@H]2C[C@H]3[C@@H]4CCC5=CC(=O)C=C[C@]5(C)[C@H]4[C@@H](O)C[C@]3(C)[C@]2(C(=O)CO)O1 (some centres undefined) [BUDESONIDE] | SGOT Increase - Activity Score | Inactive |

In: Any idea what its SGOT Increase - Activity Score is? The molecule is Cc1ccc(Cl)c(Nc2ccccc2C(=O)O)c1Cl [MECLOFENAMIC ACID]
Out: Inactive

In: Requested field: SGOT Increase - Activity Score. Item: C[C@H](CS)C(=O)N1CCC[C@H]1C(=O)O [CAPTOPRIL]
Out: Inactive

In: # lookup: SGOT Increase - Activity Score of Clc1ccc(CSC(Cn2ccnc2)c2ccc(Cl)cc2Cl)cc1 (centres undefined) [SULCONAZOLE]
Out: Inactive

In: Query (molecule): NC(N)=Nc1nc(CSCCC(N)=NS(N)(=O)=O)cs1 [FAMOTIDINE] ; field requested: SGOT Increase - Activity Score
Out: Inactive

In: Look at this molecule and give its reported SGOT Increase - Activity Score. CN(C)c1ccc(O)c2c1C[C@H]1C[C@H]3[C@H](N(C)C)C(O)=C(C(N)=O)C(=O)[C@@]3(O)C(O)=C1C2=O [MINOCYCLINE]
Out: Marginally Active

In: Would you mind telling me what SGOT Increase - Activity Score value was observed for CCOC(=O)C1=C(COCCN)NC(C)=C(C(=O)OC)C1c1ccccc1Cl (centres undefined) [AMLODIPINE] ?
Out: Inactive

In: Query: SGOT Increase - Activity Score; subject: CN(Cc1ccc(C(C)(C)C)cc1)Cc1cccc2ccccc12 [BUTENAFINE]
Out: Inactive

In: Return reported SGOT Increase - Activity Score; argument: CCOC(=O)[C@H](CCc1ccccc1)N[C@@H](C)C(=O)N1CCC[C@H]1C(=O)O
Out: Inactive

In: Which SGOT Increase - Activity Score is reported for this molecule? O=C(O)c1cc(-c2ccc(F)cc2F)ccc1O [DIFLUNISAL]
Out: Inactive
